observedProperty: MIC

Query: Give recorded MIC with Candida sp. for the following compound: CC(C)=CCC/C(C)=C/CC/C(C)=C/COC(Cn1ccnc1)c1ccc(Cl)cc1Cl (centres unmarked)
Result: > 80 µg/mL

Query: Give recorded MIC with Candida sp. for the following compound: CC(C)=CCC/C(C)=C\COC(Cn1ccnc1)c1ccc(Cl)cc1Cl (centres unmarked)
Result: 20 to 40 µg/mL

Query: Give recorded MIC with Candida sp. for the following compound: CC(C)=CCC/C(C)=C/COC(Cn1ccnc1)c1ccccc1[N+](=O)[O-] (centres unmarked)
Result: 20 to 40 µg/mL

Query: Give recorded MIC with Candida sp. for the following compound: CC(C)=CCC/C(C)=C/CSC(Cn1ccnc1)c1ccc(Cl)cc1Cl (centres unmarked)
Result: > 80 µg/mL

Query: Give recorded MIC with Candida sp. for the following compound: CC(C)=CCC/C(C)=C/COC(Cn1cncn1)c1ccc(Br)cc1 (centres unmarked)
Result: > 80 µg/mL

The measurements presented in this section are drawn from patent US5183824A.
